Assay: Metabolic stability in rat plasma
Assay type: ADME, cell-free
Assay Metric: half-life

>>> result("CO/N=C(\\F)c1cc(/C(=C\\CCCC(=O)OC)c2cc(C)c3oc(=O)n(C)c3c2)cc(C)c1OC")
"0.153 h"
>>> result("CO/N=C(\\Cl)CCC/C=C(\\c1cc(C)c(OC)c(/C(Cl)=N/OC)c1)c1cc(C)c2oc(=O)n(C)c2c1")
"82.8 h"
>>> result("COC(=O)CCCC=C(c1cc(C)c(OC)c(C(=O)OC)c1)c1cc(C)c(OC)c(C(=O)OC)c1")
"0.0127 h"
>>> result("CO/N=C(\\Br)CCC/C=C(\\c1cc(C)c(OC)c(/C(Br)=N/OC)c1)c1cc(C)c2oc(=O)n(C)c2c1")
"2.6 h"
>>> result("COC(=O)CCC/C=C(\\c1cc(C)c(OC)c(C(=O)OC)c1)c1cc(C)c2oc(=O)n(C)c2c1")
"0.0217 h"
>>> result("CO/N=C(\\F)c1cc(/C(=C\\CCCc2nc(C)no2)c2cc(C)c3oc(=O)n(C)c3c2)cc(C)c1OC")
"60.7 h"

====

Assay: Cytotoxicity against mock-infected MT4 cells
Assay type: cell-based
Settings: human
Assay Metric: CC50 (µM)

>>> quantitative_result("CONC(=O)c1cc(/C(=C\\CCCC(=O)OC(C)(C)C)c2cc(C)c3oc(=O)n(C)c3c2)cc(C)c1OC")
16.8
>>> quantitative_result("CO/N=C(\\F)c1cc(/C(=C\\CCCc2nc(C)no2)c2cc(C)c3oc(=O)n(C)c3c2)cc(C)c1OC")
12.4
>>> quantitative_result("COC(=O)CCCC=C(c1cc(C)c(OC)c(C(=O)OC)c1)c1cc(C)c(OC)c(C(=O)OC)c1")
6.1
>>> quantitative_result("CO/N=C(\\Cl)CCC/C=C(\\c1cc(C)c(OC)c(/C(Cl)=N/OC)c1)c1cc(C)c2oc(=O)n(C)c2c1")
3.9
>>> quantitative_result("COC(=O)CCC/C=C(\\c1cc(C)c(OC)c(C(=O)OC)c1)c1cc(C)c2oc(=O)n(C)c2c1")
16.9
>>> quantitative_result("CONC(=O)CCC/C=C(\\c1cc(C)c(OC)c(C(=O)NOC)c1)c1cc(C)c2oc(=O)n(C)c2c1")
18.4
>>> quantitative_result("CO/N=C(\\Br)CCC/C=C(\\c1cc(C)c(OC)c(/C(Br)=N/OC)c1)c1cc(C)c2oc(=O)n(C)c2c1")
13.3
>>> quantitative_result("CO/N=C(\\F)c1cc(/C(=C\\CCCC(=O)OC)c2cc(C)c3oc(=O)n(C)c3c2)cc(C)c1OC")
21

====

Below, each entry is listed alongside its reported EC50.
Test system: Human immunodeficiency virus 1
Experiment: Antiviral activity against HIV1 RF in CEM-SS cells by XTT assay
Format: functional, organism-based
Settings: Human immunodeficiency virus 1, RF
Assay Metric: EC50 (nM)

>>> quantitative_result("COC(=O)CCC/C=C(\\c1cc(C)c(OC)c(C(=O)OC)c1)c1cc(C)c2oc(=O)n(C)c2c1")
20
>>> quantitative_result("CO/N=C(\\F)c1cc(/C(=C\\CCCC(=O)OC)c2cc(C)c3oc(=O)n(C)c3c2)cc(C)c1OC")
500
>>> quantitative_result("CO/N=C(\\F)c1cc(/C(=C\\CCCc2nc(C)no2)c2cc(C)c3oc(=O)n(C)c3c2)cc(C)c1OC")
700
>>> quantitative_result("COC(=O)CCCC=C(c1cc(C)c(OC)c(C(=O)OC)c1)c1cc(C)c(OC)c(C(=O)OC)c1")
250
